target_of_assay: receptor binding domain (RBD) of the S1-subunit of SARS-CoV-2 glycoprotein S (SARS-CoV-2, UniProt P0DTC2 319-541)
assay_overview: ACE2:RBD competition assay, 5 µg/ml IgG
# reported ACE2:RBD inhibition with 5 µg/ml IgG [%]; entries follow
Reply with a number, then the unit it belongs to.

YU505-F03 (antibody, V domains shown) VH: EVQLLESGAEVKKPGASVKVSCKASGYTFTGYYMHWVRQAPGQGLEWMGQINPNSGGTNYAQKFQGRVTMTRDTSISTAYMELSRLRSDDTAVYYCARGEGFDYWGQGTLVTVSS VL: SYVLTQPPSASGTPGQRVTISCSGSSSNIGSNYVYWYQQLPGTAPKLLIYRNNQRPSGVPDRFSGSKSGTSASLAISGLRSEGEADYYCAAWDDSLSGVVFGGGTKVTVL; 42.2%

Next binder, please.
For the binder shown here, YU505-E02 (antibody, V domains shown) VH: QVQLVQSGAEVKKPGSSVKVSCKASGGTFSSYTISWVRQAPGQGLEWMGRIIPILGIANYAQKFQGRVTITADKSTSTAYMELSSLRSEDTAVYYCARDMVSVGAAGPYYFDYWGQGTLVTVSS VL: QSVLTQPPSVSEAPRQRVTISCTGSSSNIGAGYDVHWYQQLPGTAPKLLIYGNSNRPSGVPDRFSGSKSVTSASLAITGLQAEDEADYYCQSYDSSLSGSVFGGGTKLTVL , give the reported ACE2:RBD inhibition with 5 µg/ml IgG [%].
58.8%
